tested on: NCI-H23 complex spheroids with HUVEC/MSC, viability; experiment: Anticancer human tumor NCI-H23 cell line growth inhibition [RAS]; settings: curve of first compound; second compound 1 µM;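 further: spheroids exposed to compound for 7 days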
property: IC50

compound	endpoint-result
CC(C)n1nc(-c2ccc3oc(N)nc3c2)c2c(N)ncnc21 + C#Cc1c(F)ccc2cc(O)cc(-c3ncc4c(N5CC6CCC(C5)N6)nc(OCC56CCCN5CC(F)C6)nc4c3F)c12	14.8 nM
O=C(c1ccc(F)c(F)c1Nc1ccc(I)cc1F)N1CC(O)([C@@H]2CCCCN2)C1 + C=CC(=O)N1CCN(c2nc(OCC3CCCN3C)nc3c(F)c(-c4nc(N)cc(C)c4C(F)(F)F)c(Cl)cc23)C(C)C1	< 3.16 nM
Nc1ccn(C2OC(CO)C(O)C2(F)F)c(=O)n1 (stereo unspecified) + C=CC(=O)N1CCN(c2nc(OCC3CCCN3C)nc3c(F)c(-c4nc(N)cc(C)c4C(F)(F)F)c(Cl)cc23)C(C)C1	< 3.16 nM
CC(C)NCC(C(=O)N1CCN(c2ncnc3c2C(C)CC3O)CC1)c1ccc(Cl)cc1 (stereo unspecified) + C#Cc1c(F)ccc2cc(O)cc(-c3ncc4c(N5CC6CCC(C5)N6)nc(OCC56CCCN5CC(F)C6)nc4c3F)c12	> 10000 nM
CC(Nc1ccc2c(c1)OCCn1cc(N3C(=O)OCC3C(F)F)nc1-2)C(N)=O (stereo unspecified) + C=CC(=O)N1CCN(c2nc(OCC3CCCN3C)nc3c(F)c(-c4nc(N)cc(C)c4C(F)(F)F)c(Cl)cc23)C(C)C1	< 31.6 nM
C[C@@H](NC(=O)c1ncnc(N)c1Cl)c1ncc(C(=O)Nc2cc(C(F)(F)F)c(Cl)cn2)s1 + C=CC(=O)N1CCN(c2nc(OCC3CCCN3C)nc3c(F)c(-c4nc(N)cc(C)c4C(F)(F)F)c(Cl)cc23)C(C)C1	< 31.6 nM
CC1(C)CCC(Nc2ncc(C(F)(F)F)c(-c3c[nH]c4c(P(C)(C)=O)c(C#N)ccc34)n2)CN1 (stereo unspecified) + C=CC(=O)N1CCN(c2nc(OCC3CCCN3C)nc3c(F)c(-c4nc(N)cc(C)c4C(F)(F)F)c(Cl)cc23)C(C)C1	< 0.949 nM
CCc1c2c(nc3ccc(O)cc13)-c1cc3c(c(=O)n1C2)COC(=O)[C@]3(O)CC + C=CC(=O)N1CCN(c2nc(OCC3CCCN3C)nc3c(F)c(-c4nc(N)cc(C)c4C(F)(F)F)c(Cl)cc23)C(C)C1	< 0.949 nM
CC1(O)CCCC1n1c(=O)c(C(F)F)cc2cnc(NC3CCN(S(C)(=O)=O)CC3)nc21 (stereo unspecified) + C=CC(=O)N1CCN(c2nc(OCC3CCCN3C)nc3c(F)c(-c4nc(N)cc(C)c4C(F)(F)F)c(Cl)cc23)C(C)C1	< 31.6 nM
CCc1c2c(nc3ccc(O)cc13)-c1cc3c(c(=O)n1C2)COC(=O)[C@]3(O)CC + C#Cc1c(F)ccc2cc(O)cc(-c3ncc4c(N5CC6CCC(C5)N6)nc(OCC56CCCN5CC(F)C6)nc4c3F)c12	2.89 nM
CC(C)n1nc(-c2ccc3oc(N)nc3c2)c2c(N)ncnc21 + C=CC(=O)N1CCN(c2nc(OCC3CCCN3C)nc3c(F)c(-c4nc(N)cc(C)c4C(F)(F)F)c(Cl)cc23)C(C)C1	< 0.316 nM
